Each recorded value in this set is attributed to the supplement of paper PMC8633005.

- Tested on: FM-MEL-6
- test name: drug sensitivity score (DSS) (DSS (unitless, 0-50 scale)); higher = more sensitive (stronger viability inhibition); extreme values may be limits of the assay
- experimental setup: 72 h; culture: 2D
readout type: drug sensitivity score

I would be grateful if you could share the reported drug sensitivity score for CN(C)c1cc2c(cc1Sc1nc3c(N)nccc3n1CCNCC(C)(C)C)OCO2 .
5.3

Similarly, COc1cccc(-c2ccc(NC(=O)C3=C(C(=O)O)CCC3)c(F)c2)c1 ?
0

====

- System: FM-MEL-6
- test name: drug sensitivity score (DSS) (DSS (unitless, 0-50 scale)); higher = more sensitive (stronger viability inhibition); extreme values may be limits of the assay
- experimental setup: 72 h; culture: 2D
Consider the following compounds and their measured drug sensitivity score readings.
I only need the number, thanks.

compound	drug sensitivity score
S=c1[nH]cnc2nc[nH]c12 [Mercaptopurine]	0.5
CC(C)Oc1ccc(C(=O)N[C@H](CNC(=O)CN(C)C)Cc2ccc(-c3cn4cccc([C@H](C)O)c4n3)cc2)cc1Cl	4.7
CCc1c(C(=O)C(N)=O)c2c(OCC(=O)O)cccc2n1Cc1ccccc1 [Varespladib]	0
Cn1cncc1[C@@](N)(c1ccc(Cl)cc1)c1ccc2c(c1)c(-c1cccc(Cl)c1)cc(=O)n2C [Tipifarnib]	6.2
COc1cc2/c(=N/c3ccc(Br)cc3F)nc[nH]c2cc1OCC1CCN(C)CC1 [Vandetanib]	0.2

I would be grateful if you could share the reported drug sensitivity score for COc1cc([C@@H]2c3cc4c(cc3[C@@H](O[C@@H]3O[C@@H]5CO[C@@H](C)O[C@H]5[C@H](O)[C@H]3O)[C@H]3COC(=O)[C@H]23)OCO4)cc(OC)c1O [Etoposide] .
5.7

Similarly, COCC[n+]1c2c(n(Cc3cnccn3)c1C)C(=O)c1ccccc1C2=O [Sepantronium bromide] ?
22.3

Similarly, CC(=O)c1cc2c(o1)C(=O)c1ccccc1C2=O [Napabucasin] ?
22.1

Similarly, CN1CCN(C2CCN(C(=O)Nc3cc(Oc4ccc(NC(=O)C5(C(=O)Nc6ccc(F)cc6)CC5)c(F)c4)ccn3)CC2)CC1 [Golvatinib] ?
0

Similarly, COc1cc2c(N3CCN(C(=O)Nc4ccc(OC(C)C)cc4)CC3)ncnc2cc1OCCCN1CCCCC1 [Tandutinib] ?
0
